assay: solvent given as SMILES; settings: in NC=O
measured_endpoint: log10 of fluorescence lifetime (log10 of the value in ns)
Scale: decimal log of fluorescence lifetime, fluorescence lifetime in ns.

Look over these answered cases.
compound	measured_endpoint	value_reported
COC(=O)C(Cc1ccc2oc(-c3ccc(Nc4ccccc4)cc3)nc2c1)NC(=O)OC(C)(C)C (stereo not drawn)	log10 of fluorescence lifetime	0.23
N#Cc1ccc(C[C@H](N)C(=O)O)cc1	log10 of fluorescence lifetime	0.66
N#Cc1cccc2cc[nH]c12	log10 of fluorescence lifetime	1.20

Using known records, supply log10 of fluorescence lifetime for `N#Cc1ccc2cc[nH]c2c1`
0.62

Using known records, supply log10 of fluorescence lifetime for COC(=O)C(Cc1ccc2oc(-c3ccc(N(C)c4ccccc4)cc3)nc2c1)NC(=O)OC(C)(C)C (stereo not drawn)
0.37

Using known records, supply log10 of fluorescence lifetime for COC(=O)C(Cc1ccc2oc(-c3ccc(N(C)C)cc3)nc2c1)NC(=O)OC(C)(C)C (stereo not drawn)
0.06

Using known records, supply log10 of fluorescence lifetime for COC(=O)C(Cc1ccc2oc(-c3ccc4c(c3)c3ccccc3n4-c3ccccc3)nc2c1)NC(=O)OC(C)(C)C (stereo not drawn)
0.27

Using known records, supply log10 of fluorescence lifetime for `N#Cc1ccc2[nH]ccc2c1`
0.73

Data provenance: the Deep4Chem optical property database
